Task for the reader: assign each of the following molecules its reported GI50.
- Tested on: TK-10
- Experiment Notes: NCI tumour cell line growth inhibition, 48 h
Active and inactive are the calls of the source. No stated cut-off is given here; in the data, active = GI50 up to about 1.1 µM and inactive = higher.

C/C(=C\c1ccc(Cl)cc1)C(C)(C)C(=O)O; > 100 µM (inactive)
CC1CCC2(C(=O)O)CCC3(C)C(=CCC4C5(C)CC(O)C(O)C(C)(CO)C5C(O)CC43C)C2C1C (centres undefined); > 100 µM (inactive)
N#Cc1cc2c(n(C3OC(CO)C(O)C(O)C3O)c1=S)CCCCCC2 (centres undefined); > 100 µM (inactive)
COc1cc(-c2oc3c(OC)c(O)c(OC)c(O)c3c(=O)c2OC)cc(OC)c1OC; 55.5 µM (inactive)
c1ccc(CCCN2C3CCC2CN(CCOC(c2ccccc2)c2ccccc2)C3)cc1; 12.5 µM (inactive)

Provide GI50 values for the following items, in order.
1. Cc1ccc([S+]([O-])(=Nc2ccccc2)C(C(C)C)C(C)(C)Cl)cc1 (centres undefined)
2. CC(=O)O[C@H]1[C@@H](OC2CCCC2(c2ccccc2)c2ccccc2)O[N+]([O-])=C[C@@]12COCc1cc3c(cc12)OCO3 (some centres undefined)
3. COc1cc(/C=C2/CCS(=O)(=O)c3ccc(C)cc3C2=O)cc(OC)c1OC
4. COC1(c2cccs2)c2ccccc2C(OC)(c2cccs2)c2ccccc21 (centres undefined)

1: 21.4 µM (inactive); 2: 7.85 µM (inactive); 3: 5.37 µM (inactive); 4: 36.8 µM (inactive)

###

Task for the reader: assign each of the following compounds its reported GI50.
- Tested on: Malme-3M
- Experiment Notes: NCI tumour cell line growth inhibition, 48 h
Structures can show the parent of a compound that is named as a salt. Activity calls are given as the source filed them. No stated cut-off is given here; in the data, active = GI50 up to about 1.1 µM and inactive = higher. Residues, ends and D or L forms follow the SMILES beside them. *: point of attachment. Cbz = O=C(OCc1ccccc1)*; Boc = CC(C)(C)OC(=O)*; OSu = O=C1CCC(=O)N1O*; Bn = c1ccc(C*)cc1

Here's what some known entries look like.
N#CSCC1COc2ccccc2O1 (stereo not given); > 10 µM (inactive)
CCOC(=O)C1(Cc2ccccc2)CCN(C(=O)c2ccccc2)C2C1C2(Cl)Cl (stereo not given); 21.4 µM (inactive)
CCOC(=O)c1cc(C)nc2c1c(=O)n(-c1ccccc1)c(=O)n2CCCCN1CCN(c2ncccn2)CC1; > 100 µM (inactive)
N#CC1C(=O)Nc2sc(C(=O)c3ccc(Br)cc3)c(N)c2C12CCCCC2 (stereo not given); 26.1 µM (inactive)
CC(C)(C)OC(=O)NC(Cc1ccc(OCc2ccccc2)cc1)C(=O)NC(CCCCNC(=O)OCc1ccccc1)C(=O)NC(CCCCNC(=O)OCc1ccccc1)C(=O)ON1C(=O)CCC1=O (stereo not given) (Boc-Tyr(Bn)-Lys(Cbz)-Lys(Cbz)-OSu; configuration not given here); 54.3 µM (inactive)

Provide GI50 values for the following items, in order.
1. COc1cccc(NC(=O)CC(=O)N2N=C(N(CCC#N)c3ccc(Cl)cc3)CC2c2ccccc2)c1 (stereo not given)
2. c1ccc(CC(Nc2cccnc2)c2ccccc2)cc1 (stereo not given)

1. > 100 µM (inactive)
2. 29 µM (inactive)

Provide GI50 values for the following items, in order.
1. Cn1c(=O)c2c(no[n+]2[O-])c2ccccc21
2. CCc1ccc2c(c1)N(CC(C)CN(C)C)c1ccccc1S2 (stereo not given) [ETYMEMAZINE HYDROCHLORIDE]
3. Cc1ccc(S(=O)(=O)OC2C(C3COC(C)(C)O3)OC3OC(C)(C)OC32)cc1 (stereo not given)

1. 14.2 µM (inactive)
2. 4.11 µM (inactive)
3. > 100 µM (inactive)

src = ChEMBL document CHEMBL1201862
